# measurementTarget: Induced myeloid leukemia cell differentiation protein Mcl-1 (Homo sapiens)
# Sequence (Q07820 whole entry): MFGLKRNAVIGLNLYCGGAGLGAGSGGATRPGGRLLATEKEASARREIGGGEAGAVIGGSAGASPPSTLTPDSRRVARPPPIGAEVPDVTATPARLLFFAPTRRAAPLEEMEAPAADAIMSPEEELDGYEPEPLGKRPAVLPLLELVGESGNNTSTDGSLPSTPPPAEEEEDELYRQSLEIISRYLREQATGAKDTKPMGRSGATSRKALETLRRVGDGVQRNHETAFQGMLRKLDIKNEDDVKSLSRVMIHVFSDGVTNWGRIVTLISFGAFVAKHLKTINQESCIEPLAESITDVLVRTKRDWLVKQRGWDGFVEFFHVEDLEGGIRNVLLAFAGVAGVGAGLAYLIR
# Assay type: functional
Calls of active or inactive are those of the source.
measurementType: IC50

# structureString, dataValue
data = [
    ("O=C(Nc1nc(-c2ccncc2)cs1)c1ccco1", "4.34 µM (active)"),
    ("NC1=C2C(=O)c3ccccc3C(=O)C2=C(N)CC1", "1.8 µM (not active)"),
    ("Cc1ccc(NC(=O)Cn2c(O)c(N=NC(=O)c3cc4ccccc4cc3O)c3ccccc32)cc1", "2.57 µM (active)"),
    ("COc1ccc(C(=O)n2nc(C)c(Br)c2C)cc1", "2.84 µM (not active)"),
    ("CS(=O)(=O)C1=NSC2=NC(=O)/C(=C\\c3cccn3-c3ccc(Cl)cc3)C(=N)N21", "4.98 µM (active)"),
    ("O=C1NC(=S)NC(=O)C1=NNc1ccc(-c2ccccc2)cc1[N+](=O)[O-]", "4.83 µM (active)"),
    ("CNc1ccc(Br)cc(C(=O)/C=C/c2ccc(OC)cc2OC)c1=O", "2.17 µM (active)"),
    ("Cc1ccc(C2=NC(=O)/C(=C/c3cc(O)c(O)c(Br)c3)S2)cc1", "0.767 µM (active)"),
]

###

Form field: AC50 (one value per entry).
# procedureSummary: Luminescence Cell-Based Dose Retest to Confirm Inhibitors of Cancer Stem Cells. [Related pubchem assays (depositor defined):AID2717, AID2721]
# Assay type: functional
# statedConditions: Homo sapiens
The source made the active and inactive calls.

# structureString, AC50
records = [
    ("CCN(CC)CCNC(=O)c1[nH]c2ccc(OCc3ccccc3)cc2c1C", "1.18 µM (active)"),
    ("O=C(N/N=C/c1cc([N+](=O)[O-])ccc1O)c1c[nH]c2ccccc12", "6.85 µM (active)"),
    ("CC(C)(C)c1ccc(C(=O)Nc2ccc(N3CCOCC3)cc2)cc1", "4.04 µM (active)"),
    ("CC1CCN(C2=NN3C(=N)/C(=C\\c4ccc(OC(=O)c5ccco5)cc4)C(=O)N=C3S2)CC1", "14.6 µM (active)"),
    ("O=C(/C=C/c1c(F)cccc1Cl)c1ccc(O)cc1", "6.85 µM (active)"),
    ("Cc1ccc(NC(=O)Cn2c(O)c(N=NC(=O)c3cc4ccccc4cc3O)c3ccccc32)cc1", "4.23 µM (active)"),
]

###

Form field: IC50 (one value per entry).
# measurementTarget: Leucine aminopeptidase (Plasmodium falciparum 3D7, UniProt Q8IL11)
# Sequence (Q8IL11 whole entry): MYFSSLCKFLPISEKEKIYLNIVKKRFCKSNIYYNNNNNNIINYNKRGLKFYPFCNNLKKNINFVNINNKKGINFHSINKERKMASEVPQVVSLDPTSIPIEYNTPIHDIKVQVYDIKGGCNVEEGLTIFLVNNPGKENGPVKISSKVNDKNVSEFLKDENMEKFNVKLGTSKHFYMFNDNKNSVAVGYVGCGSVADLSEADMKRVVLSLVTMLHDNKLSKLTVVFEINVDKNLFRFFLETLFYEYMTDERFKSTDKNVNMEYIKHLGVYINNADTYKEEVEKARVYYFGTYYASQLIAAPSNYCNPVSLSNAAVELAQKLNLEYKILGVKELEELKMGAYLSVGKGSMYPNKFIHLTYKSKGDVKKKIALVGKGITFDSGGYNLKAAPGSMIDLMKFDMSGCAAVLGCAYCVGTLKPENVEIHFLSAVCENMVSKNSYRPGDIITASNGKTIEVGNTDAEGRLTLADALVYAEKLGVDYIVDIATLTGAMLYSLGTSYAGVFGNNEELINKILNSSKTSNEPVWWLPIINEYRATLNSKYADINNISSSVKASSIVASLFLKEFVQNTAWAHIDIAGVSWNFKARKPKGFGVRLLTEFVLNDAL
# procedureSummary: P. falciparum M17LAP inhibitors, primary screen, biochemical, fluorogenic H-Leu-NHMec substrate, 1536-well (AID 1619)
# Assay type: functional
The source made the active and inactive calls.

# molecule, IC50
data = [
    ("N#Cc1c(NC(=O)C2CC(Cl)=CCC2C(=O)O)sc2c1CCCCC2 (stereo unspecified)", "< 1 µM (active)"),
    ("COc1ccc(/C(C)=C2\\SC(=S)N(CCC(=O)O)C2=O)cc1", "30.1 µM (active)"),
    ("COC(=O)c1ccc(NCC(=O)N2CCCCCC2)cc1", "40.3 µM (active)"),
    ("Cc1cc(C(=O)O)ccc1-c1ccc(/C=C2\\NC(=O)N(Cc3ccccc3Cl)C2=O)o1", "13.6 µM (active)"),
    ("O=C(CN1C(=O)C2C3C=CC(C4CC34)C2C1=O)Nc1cnc2ccccc2c1 (stereo unspecified)", "21.7 µM (active)"),
    ("CCCCc1ccc(NC(=O)N[C@H](C(=O)O)C(C)CC)cc1 (stereo partly specified)", "6.31 µM (active)"),
]

###

# measurementTarget: DNA dC->dU-editing enzyme APOBEC-3G (Homo sapiens, UniProt Q9HC16);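 also: Dose-response counterscreen measuring inhibition of APOBEC3G DNA deaminase activity, run while confirming APOBEC3A inhibitors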
# Sequence (Q9HC16 whole entry): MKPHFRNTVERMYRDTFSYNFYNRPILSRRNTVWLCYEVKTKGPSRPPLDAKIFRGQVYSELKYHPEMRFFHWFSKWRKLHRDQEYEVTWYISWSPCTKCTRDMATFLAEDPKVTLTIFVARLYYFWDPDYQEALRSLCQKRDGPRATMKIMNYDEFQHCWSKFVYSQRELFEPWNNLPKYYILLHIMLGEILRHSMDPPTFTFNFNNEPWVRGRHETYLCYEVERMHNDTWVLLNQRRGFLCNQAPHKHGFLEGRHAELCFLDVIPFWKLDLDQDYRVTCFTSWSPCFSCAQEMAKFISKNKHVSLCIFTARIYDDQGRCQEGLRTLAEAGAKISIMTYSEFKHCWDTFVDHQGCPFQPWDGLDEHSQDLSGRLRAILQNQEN
# Type: functional
The source made the active and inactive calls.
measurementType: IC50

# structureString, dataValue
records = [
    ("CCN1CCN(c2ccc(NC(=O)c3cc4ccccc4cc3OC)cc2C)CC1", "6.67 µM (active)"),
    ("NC(=O)C[N+]1(CC#CC(O)(c2ccccc2)c2ccccc2)CCCC1", "2.59 µM (active)"),
    ("COC(=O)c1ccc2ccn(CC(=O)NC(C)C)c2c1", "4.95 µM (active)"),
    ("COC(=O)C1=C(C)N(CC2CC2)C(NCc2cc(OC)c(OC)c(OC)c2)=N[C@H]1c1ccccc1", "14 µM (active)"),
    ("COCc1cc(C)nc(Sc2nc3c(c(=O)n(C)c(=O)n3C)n2C)c1C#N", "8.47 µM (active)"),
    ("CCN1C(=NCC2CC2)N[C@@H](c2ccccc2)C(C(=O)OC)=C1C", "8.56 µM (active)"),
]

###

Form field: EC50 (one value per entry).
# procedureSummary: Luminescence Cell-Based Dose Response HTS to Identify Activators of Luciferase Translation or Activity in H4 […] Cells. [Related pubchem assays: 1829 (Project Summary), 1814 (Primary HTS)]
# Assay type: functional
Activity calls are given as the source filed them.
measurementType: EC50

# molecule, dataValue
measured = [
    ("O=C(c1cc2ccccc2oc1=O)N(c1ccc(Cl)cc1)C1C=CS(=O)(=O)C1 (stereo unspecified)", "36.3 µM (active)"),
    ("O=C(Nc1ccc(N2CCCCC2)c(Cl)c1)c1cccnc1", "6.12 µM (active)"),
    ("O=C1c2ccccc2S(=O)(=O)c2cc(N3CCc4ccccc4C3)ccc21", "16.3 µM (active)"),
    ("O=C(CC1CCCCC1)NCc1ccccc1Cl", "14.1 µM (active)"),
    ("Cc1cc(C(=O)CSc2nc3ccccc3o2)c(C)n1C1CC1", "0.905 µM (active)"),
    ("O=C(Nc1ccc2c(c1)OCO2)C1CC(c2c(F)cccc2Cl)=NO1 (stereo unspecified)", "25.6 µM (active)"),
]

###

# measurementTarget: Cytochrome P450 2C19 (Homo sapiens, UniProt P33261)
# Sequence (P33261 whole entry): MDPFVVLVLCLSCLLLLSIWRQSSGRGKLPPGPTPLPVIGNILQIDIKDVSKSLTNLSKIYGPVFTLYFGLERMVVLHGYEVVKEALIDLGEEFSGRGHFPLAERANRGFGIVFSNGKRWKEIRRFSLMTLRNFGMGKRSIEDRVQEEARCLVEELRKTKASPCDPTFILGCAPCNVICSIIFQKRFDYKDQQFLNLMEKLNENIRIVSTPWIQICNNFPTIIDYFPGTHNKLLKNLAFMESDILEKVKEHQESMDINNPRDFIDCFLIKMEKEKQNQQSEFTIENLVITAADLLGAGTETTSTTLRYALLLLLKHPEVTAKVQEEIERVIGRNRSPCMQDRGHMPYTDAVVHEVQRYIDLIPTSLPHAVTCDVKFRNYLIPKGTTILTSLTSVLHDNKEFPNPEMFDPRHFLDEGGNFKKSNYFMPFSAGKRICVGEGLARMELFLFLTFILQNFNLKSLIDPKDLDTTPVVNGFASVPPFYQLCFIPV
# procedureSummary: Cytochrome panel assay with activity outcomes. Panel member name: p450-cyp2c19 Compounds with AC50 equal or less than 10 uM are considered active
# Assay type: functional
# statedConditions: read-out: AC50

# compound, measurementTarget, AC50
rows = [
    ("Cn1cccc1C(=O)N1CCC2(CCCN(Cc3ccncc3)C2)CC1", "Cytochrome P450 2C19 (Homo sapiens, UniProt P33261)", "15.8 µM (inconclusive)"),
    ("CC(=O)Nc1ccc(Sc2ncccc2C(=O)Nc2ccc(F)cc2)cn1", "Cytochrome P450 2C19 (Homo sapiens, UniProt P33261)", "39.8 µM (inconclusive)"),
    ("CN(Cc1ccco1)c1ccnc(-c2cccc(NS(C)(=O)=O)c2)n1", "Cytochrome P450 2C19 (Homo sapiens, UniProt P33261)", "25.1 µM (inconclusive)"),
    ("CCC(=O)NCCNC(=O)c1c(SC)nsc1SC", "Cytochrome P450 2C19 (Homo sapiens, UniProt P33261)", "39.8 µM (inconclusive)"),
    ("COc1ccc(Oc2nc3ccccc3nc2C(F)(F)F)cc1", "Cytochrome P450 2C19 (Homo sapiens, UniProt P33261)", "3.16 µM (inconclusive)"),
    ("CCCc1nnc(NC(=O)CN2C(=O)C3C4C=CC(C4)C3C2=O)s1 (stereo unspecified)", "Cytochrome P450 2C19 (Homo sapiens, UniProt P33261)", "17.8 µM (inconclusive)"),
]

###

# measurementTarget: UniProtKB Q9H0H5
# Sequence (Q9H0H5 whole entry): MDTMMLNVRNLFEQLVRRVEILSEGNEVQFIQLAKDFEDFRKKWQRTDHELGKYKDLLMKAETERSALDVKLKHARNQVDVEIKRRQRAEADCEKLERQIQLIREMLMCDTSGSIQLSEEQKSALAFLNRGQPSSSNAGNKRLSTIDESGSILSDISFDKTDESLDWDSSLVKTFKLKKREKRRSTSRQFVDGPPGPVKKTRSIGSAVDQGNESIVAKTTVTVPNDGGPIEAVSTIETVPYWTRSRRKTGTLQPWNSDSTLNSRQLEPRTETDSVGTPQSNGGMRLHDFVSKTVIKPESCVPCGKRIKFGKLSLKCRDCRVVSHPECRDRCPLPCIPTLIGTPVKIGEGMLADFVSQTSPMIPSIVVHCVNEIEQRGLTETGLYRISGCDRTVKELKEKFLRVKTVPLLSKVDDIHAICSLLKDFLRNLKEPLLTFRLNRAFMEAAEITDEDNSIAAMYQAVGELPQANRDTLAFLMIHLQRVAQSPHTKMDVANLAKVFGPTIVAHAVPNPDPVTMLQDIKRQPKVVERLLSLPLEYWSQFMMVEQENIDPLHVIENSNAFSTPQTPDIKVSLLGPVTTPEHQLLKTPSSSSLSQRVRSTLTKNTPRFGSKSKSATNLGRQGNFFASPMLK
# procedureSummary: blockers of MgcRacGAP-driven Rac1 GTP hydrolysis – biochemical, ADP Hunter fluorescence, primary and confirmatory, confirmation (AID 624330)
# Format: functional
Calls of active or inactive are those of the source.

# compound, IC50
rows = [
    ("CCOC(=O)C1=C(COC(=O)/C=C/c2ccc(O)c(OC)c2)NC(=O)NC1C (stereo unspecified)", "59.4 µM (active)"),
    ("CN(C)c1ccc2c(c1)C(=NO)c1ccccc1-2", "33.5 µM (active)"),
    ("CCN(CC)CCCNCC(=O)Nc1ccc2c(c1)CCC2", "117 µM (active)"),
    ("Nc1c(Cl)ncnc1NCCc1ccc(O)cc1", "99.1 µM (active)"),
    ("COc1ccc(N2CCN(C(CNC(=O)CC(C)(C)C)c3ccc4c(c3)OCO4)CC2)cc1 (stereo unspecified)", "166 µM (active)"),
    ("C[N+](C)(C)CCC(=O)N1C/C(=C/c2ccccc2)C(=O)/C(=C\\c2ccccc2)C1", "128 µM (active)"),
    ("Cc1c(N=C2NC(=O)/C(=C/c3ccc(O)cc3)S2)c(=O)n(-c2ccccc2)n1C", "60.7 µM (active)"),
    ("CC(=O)N1CCN(c2ccc(NCc3ccc(Br)o3)cc2)CC1", "13.7 µM (active)"),
    ("C=C1CC(C(=O)N/N=C/c2ccc(O)cc2)C1", "42.6 µM (active)"),
    ("Cc1ccc(S(=O)(=O)c2cc(Nc3ccccc3)ccc2O)cc1", "48.9 µM (active)"),
    ("O=C(Nc1ccc(C2=NCCN2)cc1)c1ccc(C(=O)Nc2ccc(C3=NCCN3)cc2)c(Cl)c1", "35.8 µM (active)"),
]
